target: UniProt Q9NYL2; assay: KINOMEscan competition binding; conditions: compound 10.0 µM
Sequence (Q9NYL2 whole entry, looked up): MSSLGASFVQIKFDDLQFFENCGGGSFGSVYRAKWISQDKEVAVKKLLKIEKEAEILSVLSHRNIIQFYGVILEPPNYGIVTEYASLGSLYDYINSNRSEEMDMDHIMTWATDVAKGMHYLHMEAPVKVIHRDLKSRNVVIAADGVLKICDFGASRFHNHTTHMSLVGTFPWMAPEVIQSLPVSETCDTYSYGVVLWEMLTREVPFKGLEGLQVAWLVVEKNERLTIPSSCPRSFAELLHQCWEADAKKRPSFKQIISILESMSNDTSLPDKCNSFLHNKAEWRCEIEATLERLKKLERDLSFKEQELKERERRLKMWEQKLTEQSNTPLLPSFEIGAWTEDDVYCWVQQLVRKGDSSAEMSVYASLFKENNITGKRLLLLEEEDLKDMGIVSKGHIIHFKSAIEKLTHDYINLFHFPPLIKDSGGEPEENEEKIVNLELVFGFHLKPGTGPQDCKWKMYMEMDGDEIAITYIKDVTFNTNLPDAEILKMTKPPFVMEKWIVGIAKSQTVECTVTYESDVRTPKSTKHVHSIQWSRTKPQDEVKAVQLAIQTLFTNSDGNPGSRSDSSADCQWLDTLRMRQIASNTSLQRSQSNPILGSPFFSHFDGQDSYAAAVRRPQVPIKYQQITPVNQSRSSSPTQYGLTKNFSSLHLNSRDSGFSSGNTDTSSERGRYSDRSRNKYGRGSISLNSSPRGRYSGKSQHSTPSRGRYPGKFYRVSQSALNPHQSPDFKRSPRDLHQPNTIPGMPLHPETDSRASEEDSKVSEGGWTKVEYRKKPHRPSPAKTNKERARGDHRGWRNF
Could you please report measured kinase still bound, per cent of control for the items listed next?
Answers are plain numbers, in %.

Here's what some known entries look like.
{"structure.as.smiles": "CCN(CC)CCCCNc1ncc2cc(-c3cc(OC)cc(OC)c3)c(NC(=O)NC(C)(C)C)nc2n1", "measurement": 100}
{"structure.as.smiles": "CN(C)C/C=C/C(=O)Nc1ccc(C(=O)Nc2cccc(Nc3nccc(-c4cccnc4)n3)c2)cc1", "measurement": 62}
{"structure.as.smiles": "O=C1NC(=O)/C(=C/c2ccc3nccc(-c4ccncc4)c3c2)S1", "measurement": 16}
{"structure.as.smiles": "C=CC(=O)Nc1ccc(CN(C(=O)Nc2c(Cl)c(OC)cc(OC)c2Cl)c2cc(Nc3ccc(N4CCN(C)CC4)cc3)ncn2)cc1", "measurement": 100}

Could you now consider this next molecule?
# input Looking for the measured kinase still bound, per cent of control of N#CCNC(=O)c1ccc(-c2ccnc(Nc3ccc(N4CCOCC4)cc3)n2)cc1 , can you help?
# output 100

----------
target: LIMK1 (human) (UniProt P53667); assay: KINOMEscan competition binding; conditions: compound 10.0 µM
Sequence (P53667 whole entry, looked up): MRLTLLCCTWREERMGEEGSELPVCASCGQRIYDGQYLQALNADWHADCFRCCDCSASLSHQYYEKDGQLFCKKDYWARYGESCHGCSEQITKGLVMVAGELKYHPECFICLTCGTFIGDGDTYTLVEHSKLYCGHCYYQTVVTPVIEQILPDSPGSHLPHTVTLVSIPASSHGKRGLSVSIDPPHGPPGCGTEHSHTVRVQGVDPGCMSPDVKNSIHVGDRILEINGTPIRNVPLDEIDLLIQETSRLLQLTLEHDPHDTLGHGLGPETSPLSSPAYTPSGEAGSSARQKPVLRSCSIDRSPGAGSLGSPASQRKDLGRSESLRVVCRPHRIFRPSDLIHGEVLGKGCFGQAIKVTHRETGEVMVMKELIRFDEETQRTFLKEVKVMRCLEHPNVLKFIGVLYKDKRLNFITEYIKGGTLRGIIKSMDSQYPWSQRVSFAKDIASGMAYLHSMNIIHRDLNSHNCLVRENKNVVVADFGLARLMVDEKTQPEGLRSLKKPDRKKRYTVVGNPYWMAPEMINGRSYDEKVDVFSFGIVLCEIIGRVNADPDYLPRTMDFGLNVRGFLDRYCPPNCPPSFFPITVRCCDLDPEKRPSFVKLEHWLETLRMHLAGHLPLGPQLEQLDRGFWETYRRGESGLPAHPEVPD
property.label: kinase still bound, per cent of control (%)
Answers are plain numbers, in %.

{"structure.as.smiles": "C=CC(=O)Nc1cc(-n2c(=O)ccc3cnc4ccc(-c5cn[nH]c5)cc4c32)ccc1C", "kinase still bound, per cent of control [%]": 100}
{"structure.as.smiles": "CCN(CC)CCCCNc1ncc2cc(-c3cc(OC)cc(OC)c3)c(NC(=O)NC(C)(C)C)nc2n1", "kinase still bound, per cent of control [%]": 100}
{"structure.as.smiles": "CN(C)C/C=C/C(=O)Nc1ccc(C(=O)Nc2cccc(Nc3nccc(-c4cccnc4)n3)c2)cc1", "kinase still bound, per cent of control [%]": 60}

Could you now consider this next compound?
# input Looking for the measured kinase still bound, per cent of control of CS(=O)(=O)N1CCN(Cc2cc3nc(-c4cccc5[nH]ncc45)nc(N4CCOCC4)c3s2)CC1 , can you help?
# output 100

----------
target: MAP4K3 (human) (UniProt Q8IVH8); assay: KINOMEscan competition binding; conditions: compound 10.0 µM
Sequence (Q8IVH8 whole entry, looked up): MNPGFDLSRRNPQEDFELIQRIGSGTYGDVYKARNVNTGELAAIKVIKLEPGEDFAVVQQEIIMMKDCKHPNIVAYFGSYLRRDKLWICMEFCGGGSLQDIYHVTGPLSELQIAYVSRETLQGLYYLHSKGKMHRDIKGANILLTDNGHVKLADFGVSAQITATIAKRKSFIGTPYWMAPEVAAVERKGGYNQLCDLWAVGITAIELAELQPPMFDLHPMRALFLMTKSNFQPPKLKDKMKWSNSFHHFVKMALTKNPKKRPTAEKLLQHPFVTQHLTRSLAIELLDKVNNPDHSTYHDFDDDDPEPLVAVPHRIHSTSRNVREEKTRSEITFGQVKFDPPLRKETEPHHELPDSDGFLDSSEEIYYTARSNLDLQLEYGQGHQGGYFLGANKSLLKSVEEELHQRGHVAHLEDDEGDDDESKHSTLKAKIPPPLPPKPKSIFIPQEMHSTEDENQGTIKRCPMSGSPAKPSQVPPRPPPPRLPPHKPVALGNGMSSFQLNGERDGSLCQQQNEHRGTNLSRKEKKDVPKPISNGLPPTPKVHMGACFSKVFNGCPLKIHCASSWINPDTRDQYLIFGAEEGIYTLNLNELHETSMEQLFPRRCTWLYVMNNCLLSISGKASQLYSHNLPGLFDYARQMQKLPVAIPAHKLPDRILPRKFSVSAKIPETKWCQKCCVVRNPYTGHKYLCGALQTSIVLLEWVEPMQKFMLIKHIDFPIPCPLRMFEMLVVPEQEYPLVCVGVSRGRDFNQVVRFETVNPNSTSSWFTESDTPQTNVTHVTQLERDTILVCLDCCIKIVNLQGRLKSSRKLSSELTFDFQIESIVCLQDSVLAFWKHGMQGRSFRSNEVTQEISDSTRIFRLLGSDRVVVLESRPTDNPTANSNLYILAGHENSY
Okay, here is how we bin by kinase still bound, per cent of control: low class: < 30%; middle class: ≥ 30% and < 70%; high class: ≥ 70%

{"structure.as.smiles": "COCC(=O)NC/C=C/c1ccc2ncnc(Nc3ccc(Oc4ccc(C)nc4)c(C)c3)c2c1", "target.of.assay": "MAP4K3 (human) (UniProt Q8IVH8)", "discrete.label": "high class"}
{"structure.as.smiles": "O=C1NC(=O)/C(=C/c2ccc3nccc(-c4ccncc4)c3c2)S1", "target.of.assay": "MAP4K3 (human) (UniProt Q8IVH8)", "discrete.label": "middle class"}
{"structure.as.smiles": "NC(=O)Nc1cc(-c2cccc(F)c2)sc1C(=O)N[C@@H]1CCCNC1", "target.of.assay": "MAP4K3 (human) (UniProt Q8IVH8)", "discrete.label": "low class"}

# input Record CNC(=O)c1cc(Oc2ccc(NC(=O)Nc3ccc(Cl)c(C(F)(F)F)c3)cc2)ccn1 — which class?
# output middle class

# input Now this one: O=c1cc(N2CCOCC2)oc2c(-c3cccc4c3sc3ccccc34)cccc12
# output high class

# input Now this one: COc1cc2ncnc(-n3nc(-c4ccccn4)nc3N)c2cc1OC
# output middle class

# input Now this one: COc1cc2ncn(-c3cc(OCc4ccccc4C(F)(F)F)c(C(N)=O)s3)c2cc1OC
# output middle class

# input Now this one: CNC(=O)c1ccc(Nc2cc(Nc3ccccc3S(=O)(=O)C(C)C)c3cc[nH]c3n2)nc1
# output low class
